# target_entity: T1, GST-TIPT2 (TIPT isoform 2) (mouse, UniProt Q6P926 1-205)
# T1 sequence: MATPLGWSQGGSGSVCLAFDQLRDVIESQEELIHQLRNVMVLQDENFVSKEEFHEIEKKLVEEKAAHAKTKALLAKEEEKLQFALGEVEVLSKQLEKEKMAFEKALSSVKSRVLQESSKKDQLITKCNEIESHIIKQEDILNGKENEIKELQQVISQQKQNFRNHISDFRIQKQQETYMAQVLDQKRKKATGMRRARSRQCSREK
# assay_context: protein: recombinant; tags: N-terminal GST
readout_kind: binding result

# binder, readout_kind, observed_measurement
data = [
    ("AdMLPm7 (dsDNA) DNA 1: AAGGGGGGCTATAAAAGGTTGTGGG DNA 2: CCCACAACCTTTTATAGCCCCCCTT", "binding result", "binds"),
    ("AdMLPm9 (dsDNA) DNA 1: AAGGGGGGCTATAAAAGGGGGTTTT DNA 2: AAAACCCCCTTTTATAGCCCCCCTT", "binding result", "binds"),
    ("AdMLPm2 (dsDNA) DNA 1: AATTGGGGCTATAAAAGGGGGTGGG DNA 2: CCCACCCCCTTTTATAGCCCCAATT", "binding result", "binds"),
]
